Value source: PubChem BioAssay

# ASSAY PROTOCOL: plasmodial surface anion channel blockers, osmotic lysis – cell-based, P. falciparum Indochina, OD700, 18 h, primary screen (AID 1157)
# TEST SETTINGS: P. falciparum Indochina infected erythrocytes, osmotic lysis OD700, 18 h; higher = more signal, called active from +8 up or from −8 down
A collection of molecules and their measured z-score
When you answer, write just the number.

Incoming: // lookup z-score for COC(=O)[C@@]1(Cc2ccc(OC)cc2)[C@H]2c3cc(C(=O)N4CCCC4)n(Cc4ccc(C(F)(F)F)nc4)c3C[C@H]2CN1C(=O)c1ccccc1
Outgoing: 3.37

Further cases:
Incoming: Return reported z-score; argument: C=CC1c2cc(O)c(OC)cc2CCN1C (stereo not drawn)
Outgoing: -0.214

Incoming: # lookup: z-score of O=C(NC1CC1)[C@@H]1c2ccccc2C(=O)N(Cc2cc(C(F)(F)F)cc(C(F)(F)F)c2)[C@H]1c1ccc(CO)cc1
Outgoing: -0.558

Incoming: Field request: z-score | item: CC(=O)c1ccc(C(O)C2C=CC3C(=O)N(c4ccccc4)C(=O)C3N2Nc2ccc(C(C)C)cc2)cc1 (stereo not drawn)
Outgoing: 1.47

Incoming: Returns the measured z-score for the input molecule. Input: C[N+](C)(C)CCCC[C@@H]1NC(=O)[C@H]2C[C@@H](C(=O)NCCCCCNC(=O)CS)[C@@H](c3cccc(OCCO)c3)N2C1=O
Outgoing: 0.204

Incoming: For the molecule shown here, CN(C)CCCNC(=O)[C@@]1(C)c2ccccc2C(=O)N(Cc2ccc(OC(F)(F)F)cc2)[C@H]1c1ccc(CO)cc1 , give the reported z-score.
Outgoing: 0.328

Incoming: Requested field: z-score. Item: N#Cc1ccc(-c2cccc(=O)o2)cc1
Outgoing: 0.979

Incoming: Item O=C1C[C@]2(c3ccc([N+](=O)[O-])cc3)C(=O)N(C3CC3)c3cc(CO)ccc3[C@H]2N1C1CCCCC1 has what recorded z-score?
Outgoing: -0.0894

###

# Test system: Human papillomavirus type 1a protein E7 (residues 44-93)
# ASSAY PROTOCOL: small molecules binding HPV E7 44-93 – biochemical, small-molecule microarray, residues 44-93, 635 nm fluorescence, primary screen (AID 1108);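 note: E7 fragment applied at 1 µg/mL in TBST for 1 h at 4 C; score combines spot fluorescence with its signal to noise ratio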
# TEST SETTINGS: fluorescence 635 nm, higher = more signal
Items are presented alongside their recorded composite z-score.
I only need the number, thanks.

Incoming: Would you mind telling me what composite z-score value was observed for C=CC[C@@]1(C(=O)N(C)C)N=C(c2ccc(OCCCO)cc2)O[C@@H]1c1ccccc1CN=[N+]=[N-] ?
Outgoing: 1.42

Incoming: Recorded composite z-score of O=C1NC(=O)C2C1C=CC(C(O)c1ccc([N+](=O)[O-])cc1)N2Nc1ccccn1 (stereo not given) , please.
Outgoing: -0.382

Incoming: Value lookup for composite z-score; key = CN(C)CCCNC(=O)[C@@]1(Cc2ccccc2I)c2ccccc2C(=O)N(C2CCCCC2)[C@H]1c1ccc(CO)cc1
Outgoing: 0.664

Incoming: Give the measured composite z-score of CCCNC(=O)[C@@]1(c2ccc([N+](=O)[O-])cc2)CC(=O)N(C(C)C)[C@@H]1c1ccc(CO)cc1 .
Outgoing: -0.603

More entries:
Incoming: # input molecule: CCCCCC1=C2CNC(Cc3ccccc3)(C(=O)OC)C=C2C(C)C1=O (stereo not given) ; wanted: its composite z-score
Outgoing: 0.719

Incoming: What value of composite z-score has been recorded for this entry: COc1ccc(C(O)C2C=CC3C(=O)NC(=O)C3N2Nc2ccc(Cl)cc2Cl)c2ccccc12 (stereo not given)
Outgoing: 0.795

Incoming: Give its composite z-score value. Item: CN(C)c1ccc(C(O)C2C=CC3C(=O)N(Cc4ccccc4)C(=O)C3N2n2cnnc2)cc1 (stereo not given)
Outgoing: -1.17

Incoming: Item under review: C#CCN1[C@@H](Cc2ccccc2)C(=O)O[C@H](Cc2ccccc2)[C@@H]1/C=C/C1CC1 . Reported composite z-score?
Outgoing: 0.805

Incoming: Entry C=C(CCCC)/C(=C/C[C@H](OC(=O)c1ccncc1)c1ccc(OCCO)cc1)c1cnc2ccccc2c1 : reported composite z-score = ?
Outgoing: -0.38

Incoming: Return reported composite z-score; argument: NC(=O)NCC#Cc1ccc2c(c1)[C@]1(C(=O)N2)[C@H](c2ccc(OCCO)cc2)N2[C@H](c3ccccc3)[C@H](c3ccccc3)OC(=O)[C@H]2[C@@H]1C(=O)O
Outgoing: -0.979

Incoming: Endpoint output: composite z-score of COC(=O)[C@@]1(Cc2ccccc2)[C@H]2c3cc(C(=O)N(C)C)n(Cc4ccc(C(F)(F)F)nc4)c3C[C@H]2CN1C(=O)c1ccccc1 . Value?
Outgoing: 1.49

Incoming: If you can, please state the reported composite z-score value of NCCCCCCNC(=O)[C@@H]1C[C@@H]2C(=O)N3CCC[C@H]3C(=O)N2[C@@H]1c1cccc(OCCO)c1 .
Outgoing: -0.0954

Incoming: Consider the molecule Cc1ccc(N2C(=O)c3ccccc3[C@](C)(C(=O)NCCCN(C)C)[C@@H]2c2ccc(CO)cc2)nc1 and give its measured composite z-score.
Outgoing: 0.571

Incoming: Reported composite z-score for CCCN1C(=O)[C@]2(CCC(=O)OC(C)(C)C)N=C(c3ccc(OCCCO)cc3)O[C@@H]2c2ccccc21 : what is it?
Outgoing: 1.17

Incoming: Endpoint output: composite z-score of C=CCOC(=O)[C@H]1[C@@H]2C(=O)O[C@@H](c3ccccc3)[C@@H](c3ccccc3)N2[C@@H](c2ccc(OCCOC(=O)[C@H]3C[C@H]4C(=O)N[C@@H](CC(C)C)C(=O)N4[C@H]3c3ccc(O)cc3)cc2)[C@]12C(=O)Nc1ccccc12 . Value?
Outgoing: 1.42
